Target: STAT3 (Mus musculus)
Sequence (P42227 2-770 limits assumed): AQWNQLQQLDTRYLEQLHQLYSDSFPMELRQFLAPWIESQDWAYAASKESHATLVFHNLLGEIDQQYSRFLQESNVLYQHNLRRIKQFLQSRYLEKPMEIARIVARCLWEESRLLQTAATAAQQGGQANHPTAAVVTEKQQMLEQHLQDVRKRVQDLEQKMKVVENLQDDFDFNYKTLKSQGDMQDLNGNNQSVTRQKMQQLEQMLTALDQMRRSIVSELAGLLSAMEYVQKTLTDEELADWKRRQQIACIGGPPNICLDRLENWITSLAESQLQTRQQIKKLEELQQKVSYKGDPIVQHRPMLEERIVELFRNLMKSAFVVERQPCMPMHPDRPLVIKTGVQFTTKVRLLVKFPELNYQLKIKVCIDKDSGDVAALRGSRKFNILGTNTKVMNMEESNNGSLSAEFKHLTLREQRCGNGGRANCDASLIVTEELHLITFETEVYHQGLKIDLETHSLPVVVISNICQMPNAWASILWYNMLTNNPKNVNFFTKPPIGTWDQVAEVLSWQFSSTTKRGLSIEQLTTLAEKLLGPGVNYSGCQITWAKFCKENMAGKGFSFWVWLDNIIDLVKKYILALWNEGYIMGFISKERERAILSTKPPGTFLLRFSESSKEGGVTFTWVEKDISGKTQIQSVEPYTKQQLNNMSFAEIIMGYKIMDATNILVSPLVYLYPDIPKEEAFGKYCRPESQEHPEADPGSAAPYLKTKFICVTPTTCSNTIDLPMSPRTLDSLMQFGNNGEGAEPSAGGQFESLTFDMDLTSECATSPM
Assay: Stat3 DNA-binding activity, electrophoretic mobility shift assay (EMSA) with nuclear extracts
Type: biochemical
Details: inhibition of STAT3 activity in an EMSA
Examples of molecules with documented IC50 follow.
Your answer should be a plain number; it is taken to be in µM.

// worked examples, IC50 included
molecule | observed
CN(CC(=O)N(Cc1ccc(C2CCCCC2)cc1)c1ccc(C(=O)O)c(O)c1)S(=O)(=O)c1cccc2ccccc12 [Compound 45E] | 28.8
CN(CC(=O)N(Cc1ccc(C2CCCCC2)cc1)c1ccc(C(=O)O)c(O)c1)S(=O)(=O)c1cccc2cccnc12 [Compound 45F] | 24.6
CN(CC(=O)N(Cc1ccc(C2CCCCC2)cc1)c1ccc(C(=O)O)c(O)c1)S(=O)(=O)c1ccc2ccccc2c1 [Compound 45D] | 79.2

Shifting focus to the molecule that follows.
Name the recorded IC50 of the molecule listed here: Cc1ccc(S(=O)(=O)N(C)CC(=O)N(Cc2ccc(C3CCN(S(=O)(=O)c4ccc(C#N)cc4)CC3)cc2)c2ccc(C(=O)O)c(O)c2)cc1 [Compound 27KG]
50
